ASSAYED_TARGET: human Cav2.2 α (α1B) subunit, along with the human β3 and α2δ1 auxiliary subunits (Homo sapiens)
Construct: expressed in transfected cells
Sequence (Q00975 whole entry): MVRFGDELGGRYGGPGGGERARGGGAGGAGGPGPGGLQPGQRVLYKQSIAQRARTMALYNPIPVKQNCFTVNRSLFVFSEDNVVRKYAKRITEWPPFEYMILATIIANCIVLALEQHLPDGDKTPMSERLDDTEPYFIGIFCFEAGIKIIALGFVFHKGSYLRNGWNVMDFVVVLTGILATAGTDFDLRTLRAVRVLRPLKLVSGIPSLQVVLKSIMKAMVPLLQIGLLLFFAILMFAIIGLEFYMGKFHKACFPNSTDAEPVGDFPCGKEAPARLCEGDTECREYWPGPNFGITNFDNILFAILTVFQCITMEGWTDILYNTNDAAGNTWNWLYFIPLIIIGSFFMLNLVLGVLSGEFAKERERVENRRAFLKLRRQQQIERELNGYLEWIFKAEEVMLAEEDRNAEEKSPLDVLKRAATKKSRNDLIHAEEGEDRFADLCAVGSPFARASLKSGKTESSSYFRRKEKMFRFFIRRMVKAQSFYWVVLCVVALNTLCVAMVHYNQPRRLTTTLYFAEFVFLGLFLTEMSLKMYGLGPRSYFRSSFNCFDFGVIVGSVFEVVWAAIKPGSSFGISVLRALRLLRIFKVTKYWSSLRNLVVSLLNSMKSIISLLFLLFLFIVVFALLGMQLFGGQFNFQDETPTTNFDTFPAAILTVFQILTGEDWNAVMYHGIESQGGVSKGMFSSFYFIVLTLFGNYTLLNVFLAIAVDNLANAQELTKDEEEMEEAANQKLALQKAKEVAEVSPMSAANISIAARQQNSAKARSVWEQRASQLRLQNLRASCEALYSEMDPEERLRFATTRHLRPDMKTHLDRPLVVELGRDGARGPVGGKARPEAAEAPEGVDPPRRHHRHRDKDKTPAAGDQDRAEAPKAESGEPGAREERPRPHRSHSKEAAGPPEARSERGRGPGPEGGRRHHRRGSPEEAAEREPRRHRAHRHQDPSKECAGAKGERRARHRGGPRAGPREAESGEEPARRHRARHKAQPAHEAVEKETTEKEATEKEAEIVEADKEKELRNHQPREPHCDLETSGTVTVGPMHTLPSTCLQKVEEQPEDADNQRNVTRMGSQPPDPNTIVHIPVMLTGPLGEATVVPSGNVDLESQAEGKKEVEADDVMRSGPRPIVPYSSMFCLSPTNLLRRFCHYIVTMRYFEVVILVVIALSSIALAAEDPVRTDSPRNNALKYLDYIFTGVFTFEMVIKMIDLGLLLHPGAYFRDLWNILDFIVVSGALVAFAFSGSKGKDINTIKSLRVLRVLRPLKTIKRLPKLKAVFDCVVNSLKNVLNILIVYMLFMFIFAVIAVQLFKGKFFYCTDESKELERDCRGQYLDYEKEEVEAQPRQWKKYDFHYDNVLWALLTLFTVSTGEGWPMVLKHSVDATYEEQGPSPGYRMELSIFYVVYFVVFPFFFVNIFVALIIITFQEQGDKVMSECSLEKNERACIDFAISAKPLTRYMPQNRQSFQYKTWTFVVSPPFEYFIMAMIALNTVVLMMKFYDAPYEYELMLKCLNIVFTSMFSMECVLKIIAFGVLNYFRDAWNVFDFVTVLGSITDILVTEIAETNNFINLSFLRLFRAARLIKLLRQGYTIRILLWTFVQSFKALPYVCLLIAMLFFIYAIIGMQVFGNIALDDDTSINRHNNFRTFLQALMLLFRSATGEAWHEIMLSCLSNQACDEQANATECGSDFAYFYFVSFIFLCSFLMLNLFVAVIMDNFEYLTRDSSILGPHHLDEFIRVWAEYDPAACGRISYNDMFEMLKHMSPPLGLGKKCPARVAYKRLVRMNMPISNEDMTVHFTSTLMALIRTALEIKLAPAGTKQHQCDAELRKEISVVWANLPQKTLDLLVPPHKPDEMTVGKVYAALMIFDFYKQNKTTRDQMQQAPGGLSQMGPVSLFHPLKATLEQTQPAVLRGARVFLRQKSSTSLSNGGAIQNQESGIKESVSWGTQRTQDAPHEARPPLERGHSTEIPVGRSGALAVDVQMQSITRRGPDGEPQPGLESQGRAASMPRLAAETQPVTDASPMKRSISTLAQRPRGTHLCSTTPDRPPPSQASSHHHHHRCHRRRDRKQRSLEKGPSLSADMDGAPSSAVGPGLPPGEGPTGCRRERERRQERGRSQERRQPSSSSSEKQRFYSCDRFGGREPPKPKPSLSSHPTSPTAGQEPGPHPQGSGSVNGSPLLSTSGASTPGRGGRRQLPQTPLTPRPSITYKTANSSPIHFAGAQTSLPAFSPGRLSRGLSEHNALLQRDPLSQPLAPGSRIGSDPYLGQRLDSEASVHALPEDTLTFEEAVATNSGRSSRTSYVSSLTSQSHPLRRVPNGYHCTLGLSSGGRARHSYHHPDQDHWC
Sequence (P54284 whole entry partner): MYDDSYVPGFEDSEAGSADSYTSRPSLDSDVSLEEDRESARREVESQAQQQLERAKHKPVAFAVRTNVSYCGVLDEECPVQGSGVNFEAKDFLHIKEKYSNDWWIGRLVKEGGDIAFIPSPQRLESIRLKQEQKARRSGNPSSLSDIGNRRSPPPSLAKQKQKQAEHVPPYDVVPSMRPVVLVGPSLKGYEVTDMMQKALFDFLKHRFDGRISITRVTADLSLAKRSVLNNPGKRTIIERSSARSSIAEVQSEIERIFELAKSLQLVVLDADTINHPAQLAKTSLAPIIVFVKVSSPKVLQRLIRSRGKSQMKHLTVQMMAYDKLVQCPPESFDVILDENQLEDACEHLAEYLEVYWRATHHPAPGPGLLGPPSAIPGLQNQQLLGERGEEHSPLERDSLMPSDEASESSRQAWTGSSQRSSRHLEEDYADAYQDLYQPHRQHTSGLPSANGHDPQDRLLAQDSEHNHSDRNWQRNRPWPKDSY
Sequence (P54289 25-946 partner limits assumed): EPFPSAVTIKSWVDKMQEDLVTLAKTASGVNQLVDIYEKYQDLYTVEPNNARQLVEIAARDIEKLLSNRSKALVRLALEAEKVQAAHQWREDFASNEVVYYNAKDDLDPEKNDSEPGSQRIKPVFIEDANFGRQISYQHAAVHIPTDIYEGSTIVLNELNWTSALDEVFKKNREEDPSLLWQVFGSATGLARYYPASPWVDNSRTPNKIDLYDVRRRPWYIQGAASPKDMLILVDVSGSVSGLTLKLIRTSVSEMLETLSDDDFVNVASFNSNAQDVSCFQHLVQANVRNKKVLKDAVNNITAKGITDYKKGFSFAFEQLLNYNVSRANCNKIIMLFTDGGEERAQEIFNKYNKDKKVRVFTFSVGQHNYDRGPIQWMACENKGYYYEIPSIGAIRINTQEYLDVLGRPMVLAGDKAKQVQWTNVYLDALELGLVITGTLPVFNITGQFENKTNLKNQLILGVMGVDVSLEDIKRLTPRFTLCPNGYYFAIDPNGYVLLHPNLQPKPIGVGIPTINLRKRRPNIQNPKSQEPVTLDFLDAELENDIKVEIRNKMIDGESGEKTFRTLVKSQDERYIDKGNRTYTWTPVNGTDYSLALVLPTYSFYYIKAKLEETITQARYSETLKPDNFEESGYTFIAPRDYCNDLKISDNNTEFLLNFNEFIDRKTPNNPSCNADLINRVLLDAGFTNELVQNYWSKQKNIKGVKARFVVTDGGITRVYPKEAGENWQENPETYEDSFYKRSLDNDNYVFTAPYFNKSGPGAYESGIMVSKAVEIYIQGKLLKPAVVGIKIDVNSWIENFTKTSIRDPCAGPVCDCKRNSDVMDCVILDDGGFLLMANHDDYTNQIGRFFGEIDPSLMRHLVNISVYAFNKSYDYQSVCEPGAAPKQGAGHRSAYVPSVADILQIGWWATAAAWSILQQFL
Sequence (P54289 947-1103 partner limits assumed): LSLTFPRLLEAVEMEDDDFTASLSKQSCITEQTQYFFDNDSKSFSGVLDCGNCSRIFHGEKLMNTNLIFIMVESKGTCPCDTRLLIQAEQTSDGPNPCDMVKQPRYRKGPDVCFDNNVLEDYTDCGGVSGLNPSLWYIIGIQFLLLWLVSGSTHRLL
EXPERIMENTAL_PROTOCOL: hCav2.2 assay, IonWorks planar array electrophysiology in stable HEK293 cell line
Format: cell-based
STUDY_CONDITIONS: inhibition by 50% of current elicited by the 1st depolarising pulse; HEK293 cells; read-out: tonic pIC50 (converted)
Where a name gives a salt, the structure may show the parent alone.
MEASURED_ATTRIBUTE: IC50

Please review the following examples before continuing.
COMPOUND | IC50
CCCS(=O)(=O)N1CCN(Cc2nnnn2-c2ccc(Cl)cc2)CC1 | ≤ 31.6 µM
N#Cc1ccc(-n2nnnc2CN2[C@@H]3CC[C@H]2COC3)cc1C(F)(F)F [Compound 103, hydrochloride] | ≤ 10 µM
CC(C)N1CCN(Cc2nnnn2-c2ccc(C(F)(F)F)cc2)CC1 [Compound 96, hydrochloride] | ≤ 31.6 µM

# context switch: different compound, same IC50
Kindly indicate its recorded IC50. Item: O=S1(=O)CCC2CN(Cc3nnnn3-c3ccc(C(F)(F)F)cc3)CCN21 (stereo not shown) ≤ 31.6 µM
